In this section we review reported 60 nM Artemin mAb Bound (RU) values for a set of binders.
MEASURED TARGET: T1, mArtemin-MMH (mouse)
T1 construct: also called msArtemin-MMH; msARTN.mmh
T1 chain: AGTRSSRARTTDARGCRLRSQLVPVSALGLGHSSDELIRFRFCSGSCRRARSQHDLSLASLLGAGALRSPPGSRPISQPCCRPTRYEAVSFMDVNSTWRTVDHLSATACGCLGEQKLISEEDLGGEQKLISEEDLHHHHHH
TEST DESCRIPTION: SPR Biacore T200, mArtemin-MMH captured by anti-myc mAb, mAb injected, 25 C
Kindly provide the numeric value in RU only, without the unit symbol.

binder="H4H33335P (antibody, human IgG4 S228P, kappa, V domains shown, Fully human antibody; also called Artemin mAb; anti-ARTN antibody) VH: EVQLVESGGGLVQPGGSLRLSCAASGFTFSSYDMHWVRQATGKGLEWVSTIDTAGDTYYPGSVKGRFTISRENAKNSLYLQMNSLRAGDTAVYYCARDGELELQGYFDLWGRGTLVTVSS VL: DIQMTQSPSSLSASVGDRVTITCRASQIISIYLNWYQQKPGKAPKLLIYAASSLQSGVPSRFSGSGSGTDFTLTISSLQPEDFATYYCQQSYTTPLTFGGGTKVEIKR" measured_result=3
binder="H4H33349P (antibody, human IgG4 S228P, kappa, V domains shown, Fully human antibody; also called Artemin mAb; anti-ARTN antibody) VH: QVQLVESGGGVVQPGRSLRLSCEASGFTFSDYDLHWVRQAPGKGLEWVAFISNDGSNEYYPKSVKGRFSISRDNSKNTLYLQMNSLRAEDTAVYHCTKERDYYYDSSGSLDYWGQGTLVTVSS VL: DIQMTQSPSSLSASVGDRVTITCRASQTINNYLNWYQQKPGKAPKLLIYTTSGLQSGVPSRFSGRGSGTDFTLAISSLQPEDFATYYCQQSYHSPFTFGPGTKVDIKR" measured_result=20
binder="H4H33331P (antibody, human IgG4 S228P, kappa, V domains shown, Fully human antibody (human variable and constant domains) from a VELOCIMMUNE mouse; also called Artemin mAb; anti-ARTN antibody) VH: EVQLVESGGDLVQPGGSLKLSCAASGFTFSGSAMHWVRQASGKGLEWVGRIRNKVHRYATEYGASVKGRFTISRDDSKNTAYLQMNSLKIEDTAVYYCVVVVPGSIEAFDIWGQGTMVTVSS VL: DIQMTQSPSSLSASVGDRVTITCRASQSISTYLNWYQQKPGKAPNLLIYAASTLESGVPSRFSGSGSGTDFTLTISSLQPEDFEIYYCQQSYNIPWTFGQGTKVEIKR" measured_result=7

Note: attention shifts to another entry.
### Prompt State, in one line, measured 60 nM Artemin mAb Bound (RU) of H4H33336P (antibody, human IgG4 S228P, kappa, V domains shown, Fully human antibody; also called Artemin mAb; anti-ARTN antibody) VH: QVQLVESGGGVVQPGRSLRLSCVASGFILSHYGMHWVRQAPGKGLEWVAVIWFDGTNKYYADSVKGRFTVSRDNSKNTLYMQMNSLRAEDTAVYYCARDPPPARRGNYNGMDVWGQGTTVTVSS VL: DIQMTQSPSSLSASVGDRVTITCRASQDIRNDLGWYQQKPGKAPKRLIFGASSLQSGVPLRFSGSGSGTEFTLTINNLQPEDFATFYCLQDNSYPWTFGQGTKVEIKR
### Response 3
